- experimental_protocol: IN Cell qHTS Assay for Inhibitors of the mTORC1 Signaling Pathway in MEF (Tsc2-/-, p53-/-) Cells: Sytravon; note: nearly all actives have a fitted effect of over 60% in size
- recorded_conditions: phospho-rpS6 immunofluorescence, 24 h; series mostly up to 38.3 µM
The campaign covered roughly 2,100 compounds. About 210 (10%) were called active. Roughly 53% stayed inconclusive and do not appear here. Calls come from the whole dose curve; as a rule, active = well fitted inhibition curve with a large enough effect; inconclusive = small, poorly fitted or top-dose-only effect, or effect the other way; inactive = no such curve, though single readings can be large or run the other way. The list shows a part of the results.
Answer with one of the outcomes given here: true (active), false (inactive)

Example results:
Answer briefly: the call reported for CCCNC(=O)C1CCN(Cc2cc3ccccc3n2Cc2ccccc2)CC1 in this assay.
false

Outcome? COc1ccc(NC(=O)c2c(C)oc3ccc(O)c(CN4CCCC(C)C4)c23)cc1 (stereo unspecified)
false

Write down the call the test reported for this compound. Item: O=C(NCCc1ccccc1Cl)c1sc2ncccc2c1-n1cccc1
false

Next:
Please let me know the test result on file for CSc1ccccc1NC(=O)CCS(=O)(=O)c1nc(-c2cccs2)cc(C(F)(F)F)n1 .
false

Each compound tested received a call. Report the one for CCOc1ccc(-c2cc(C(=O)N3CCN(c4cccc(C(F)(F)F)c4)CC3)c3ccccc3n2)cc1 .
false

###

- experimental_protocol: IN Cell qHTS Assay for Inhibitors of the mTORC1 Signaling Pathway in MEF (Tsc2-/-, p53-/-) Cells: Sytravon; note: nearly all actives have a fitted effect of over 60% in size
- recorded_conditions: phospho-rpS6 immunofluorescence, 24 h; series mostly up to 38.3 µM
Among all 2,100 compounds or so, about 210 (10%) were called active. About 53% were inconclusive and are not listed. Calls follow the shape of the dose curve; as a rule, active = well fitted inhibition curve with a large enough effect; inconclusive = small, poorly fitted or top-dose-only effect, or effect the other way; inactive = no such curve, though single readings can be large or run the other way. This is one part of the list.
Outcomes you can answer with include only these: true (active), false (inactive)

Record lookup: outcome of this test for COc1cc(Cl)c(C)cc1Nc1c2c(nc3ccccc13)CCC2 ?
false

Which outcome was entered for the compound Cc1cccc(-n2nnnc2S(C)(=O)=O)c1 in this test?
true

Please share the test call associated with COc1ccccc1Nc1c2c(nc3ccc(NC(=O)c4ccc(N(C)C)cc4)cc13)CCCC2 .
true

Per the assay record, what outcome was assigned to COc1ccc(C)cc1Nc1c2c(nc3ccccc13)CCC2 ?
true

Would you mind telling me which call this test gave COc1ccccc1Nc1nn2c(=O)c3ccc(C(=O)NCCC4=CCCCC4)cc3nc2s1 ?
false

Which result was noted for this compound in the test: COc1ccc(C)cc1NC(=O)c1oc2ccc(S(=O)(=O)N3CCC4(CC3)OCCO4)cc2c1C
false

Test call for this compound, please: CCc1ccc(S(=O)(=O)c2nnn(-c3cccc(C)c3)c2N)cc1
false

Which outcome did this test record for the compound COc1cc2c(cc1OC)n(CC(=O)Nc1ccc(C)cc1C)c(=O)n1nc(-c3ccccc3)nc21 ?
false

# lookup: test call for COc1ccccc1Nc1nn2c(=O)c3ccc(C(=O)NCCc4ccccc4)cc3nc2s1
false

# lookup: test call for COc1ccc(C(=O)Nc2cccc(-c3cn4ccsc4n3)c2)cc1OC
false

###

- experimental_protocol: IN Cell qHTS Assay for Inhibitors of the mTORC1 Signaling Pathway in MEF (Tsc2-/-, p53-/-) Cells: Sytravon; note: nearly all actives have a fitted effect of over 60% in size
- recorded_conditions: phospho-rpS6 immunofluorescence, 24 h; series mostly up to 38.3 µM
The campaign covered roughly 2,100 compounds. About 210 (10%) were called active. Inconclusive results (about 53%) are left out. Calls come from the whole dose curve; as a rule, active = well fitted inhibition curve with a large enough effect; inconclusive = small, poorly fitted or top-dose-only effect, or effect the other way; inactive = no such curve, though single readings can be large or run the other way. The list shows a part of the results.
Respond with a class label; see active, inactive

See these solved cases before continuing.
Please share the test call associated with CCCS(=O)(=O)N1CC(=O)N(c2ccccc2C)C(C)(C(=O)NC2CCCC2)C1 (stereo unspecified) .
inactive

Outcome logged for Cc1cccc(C(=O)Nc2ccccc2SCc2cc(=O)c3cccc(C)c3[nH]2)c1 in this assay:
inactive

More entries:
How did this test come out for COc1cccc(C2CC(=O)Nc3cc4c(cc32)OCCO4)c1OC (stereo unspecified) ?
inactive

Hello, I am checking results. What call was entered for CCOc1ccc(C2CC(=O)c3c([nH]c(C(=O)OCc4ccccc4)c3C)C2)cc1 (stereo unspecified) ?
active

What did the test return for CCOC(=O)c1cnc2c(Cl)cc(Cl)cc2c1Nc1cc(C(=O)O)ccc1C ?
inactive

Hey, what did the test say about CCc1ccccc1-n1c(SCC(=O)Nc2ccc(C)cc2)nc2n[nH]c(C)c2c1=N ?
inactive

Test call for this compound, please: COc1ccc(NC(=O)C2CCCN(S(=O)(=O)c3cccc4nonc34)C2)cc1Cl (stereo unspecified)
inactive

Lab log entry: Cc1cc(C)cc(OCC(=O)Nc2ccc(-c3nc4ncccc4o3)cc2C)c1 — outcome as called in the assay?
inactive

Dear colleague, could you share the recorded outcome for COc1cc(C2CC(=O)c3c([nH]c(C(=O)OC4CCCCC4)c3C)C2)cc(OC)c1OC (stereo unspecified) when you have a moment?
inactive

Hi, do you know how CC1C(=O)Nc2ccc(S(=O)(=O)Nc3ccccc3Br)cc2NC1=O (stereo unspecified) came out in this test?
inactive

Which outcome did this test record for the compound O=C(NCCCc1nc2ccccc2n1Cc1ccccc1F)c1ccco1 ?
inactive

Write down the call the test reported for this compound. Item: O=C(Nc1ccc(F)c(F)c1)c1cc(S(=O)(=O)N2CCc3ccccc32)ccc1F
inactive

Could you check what this test reported for O=C(CSCc1ccc(F)cc1)N1CCc2c([nH]c3ccccc23)C1c1ccc(Cl)cc1 (stereo unspecified) ?
inactive

Hi, sorry to bother you, what did the test record for CCC1=Nc2cc(C(=O)NC3CCCC3)ccc2Sc2ccc(Cl)cc21 ?
inactive

Field: outcome | Entry: Cc1ccc(-c2nc(N3CCCC(C)C3)c3ccccc3n2)cc1 (stereo unspecified)
inactive
